# credit: paper PMC6719084

target: BCL-2ΔC; assay: FP
OBSERVED PROPERTY: Kd (nM)
Report the value in nM with no unit label.

Determine its reported Kd: IWIAQELRRIGDEFNAYYARRVXKKKKK (fluorescein isothiocyanate (FITC) on the N-terminus; citrulline after the linker's valine (written X in the letters); DSPE-PEG(2000)-succinyl lipid tail on the side chain of the C-terminal lysine)
187
